Target: Orexin/Hypocretin receptor type 1 (Rattus norvegicus, UniProt P56718)
Sequence (P56718 whole entry): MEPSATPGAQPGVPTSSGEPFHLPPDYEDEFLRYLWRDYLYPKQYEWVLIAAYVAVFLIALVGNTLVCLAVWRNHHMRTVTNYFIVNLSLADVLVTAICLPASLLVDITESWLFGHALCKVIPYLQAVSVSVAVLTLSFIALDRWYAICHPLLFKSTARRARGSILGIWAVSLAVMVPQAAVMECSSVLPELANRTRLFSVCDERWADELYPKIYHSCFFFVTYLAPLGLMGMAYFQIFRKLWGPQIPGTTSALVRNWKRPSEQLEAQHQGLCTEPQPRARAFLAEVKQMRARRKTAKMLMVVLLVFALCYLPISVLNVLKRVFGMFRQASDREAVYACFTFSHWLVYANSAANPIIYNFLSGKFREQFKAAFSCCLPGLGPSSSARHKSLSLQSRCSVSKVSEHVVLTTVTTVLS
Experiment: Radioligand Binding Assay: Human Embryonic Kidney 293 cells (HEK293) stably expressing rat orexin 1 receptor(Genebank accession number NM_001525) or […] (CHO) stably expressing human orexin 1 receptor (Genebank accession number […]) were grown to confluency in DMEM (Hyclone, cat # SH30022), 10% FBS, IX Pen/Strep, IX sodium pyruvate, 10 mM HEPES, 600 ug/mL G418 and DMEM/F12 (Gibco, Cat #1 1039), 10%FBS, IX Pen/Strep, 600 ug/mL G418 media, respectively on 150 cm2 tissue culture plates, washed with 5 mM EDTA in PBS (HyClone Dulbecco's Phoshpate Buffered Saline IX with Calcium and Magnesium, Cat # SH30264.01, hereafter referred to simply as PBS) and scraped into 50 ml tubes. After centrifugation (2K xG, 5 min at 4 C), the supernatant was aspirated and the pellets frozen and stored at -80C. Cells were resuspended in PBS in the presence of 1 tablet of protease inhibitor cocktail (Roche, Cat. #1 1836145001) per 50 mL. Each cell pellet from a 15 cm plate was resuspended in 10 mL.
readout: Ki
Remember to follow the number with its unit.

Data request: Reported Ki for "Cc1cnc(C(=O)N2CCC[C@@H](Nc3ccc(C(F)(F)F)cn3)[C@@H]2C)c(-c2ncccn2)c1" : what is it?
Data returned: 19 nM
